Molecular target: T1, human VEGF (hVEGF) (human, UniProt P15692 181-395)
T1 construct: also called VEGF-A
T1 sequence: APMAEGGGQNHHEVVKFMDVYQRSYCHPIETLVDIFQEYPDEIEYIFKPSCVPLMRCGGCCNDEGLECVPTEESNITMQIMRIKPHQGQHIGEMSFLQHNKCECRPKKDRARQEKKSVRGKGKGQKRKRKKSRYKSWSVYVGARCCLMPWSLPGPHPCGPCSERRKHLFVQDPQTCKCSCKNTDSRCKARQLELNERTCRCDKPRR
Test: SPR single-cycle;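 also: fab variants injected over hVEGF immobilized on a CM5 chip (Biacore T200), threefold dilution series from 0.02 to 50 nM, kinetics fitted with a 1:1 Langmuir model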
quantity: koff
I'd appreciate it if you wrote the number followed by its unit.

[Q] Need koff, item G6.31 HC-S30E (Fab, name in Kabat numbering, V domains shown, Fab) VH: EVQLVESGGGLVQPGGSLRLSCAASGFTIEDYWIHWVRQAPGKGLEWVAGITPAGGYTYYADSVKGRFTISADTSKNTAYLQMNSLRAEDTAVYYCARFVFFLPYAMDYWGQGTLVTVSS VL: DIQMTQSPSSLSASVGDRVTITCRASQDVSTAVAWYQQKPGKAPKLLIYSASFLYSGVPSRFSGSGSGTDFTLTISSLQPEDFATYYCQQGYGNPFTFGQGTKVEIK
[A] 0.000558 s⁻¹

[Q] Need koff, item G6.31 HC-P41E (Fab, name in Kabat numbering, V domains shown, Fab) VH: EVQLVESGGGLVQPGGSLRLSCAASGFTISDYWIHWVRQAEGKGLEWVAGITPAGGYTYYADSVKGRFTISADTSKNTAYLQMNSLRAEDTAVYYCARFVFFLPYAMDYWGQGTLVTVSS VL: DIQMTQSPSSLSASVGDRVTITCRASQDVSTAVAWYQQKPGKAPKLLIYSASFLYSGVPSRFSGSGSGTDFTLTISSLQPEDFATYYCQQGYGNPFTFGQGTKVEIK
[A] 0.000548 s⁻¹

[Q] Need koff, item G6.31 HC-A60E (Fab, name in Kabat numbering, V domains shown, Fab) VH: EVQLVESGGGLVQPGGSLRLSCAASGFTISDYWIHWVRQAPGKGLEWVAGITPAGGYTYYEDSVKGRFTISADTSKNTAYLQMNSLRAEDTAVYYCARFVFFLPYAMDYWGQGTLVTVSS VL: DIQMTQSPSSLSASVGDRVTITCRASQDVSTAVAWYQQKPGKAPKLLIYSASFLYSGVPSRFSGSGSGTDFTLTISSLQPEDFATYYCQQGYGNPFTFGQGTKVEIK
[A] 0.000565 s⁻¹

[Q] Need koff, item G6.31 HC-T77K (Fab, name in Kabat numbering, V domains shown, Fab) VH: EVQLVESGGGLVQPGGSLRLSCAASGFTISDYWIHWVRQAPGKGLEWVAGITPAGGYTYYADSVKGRFTISADTSKNKAYLQMNSLRAEDTAVYYCARFVFFLPYAMDYWGQGTLVTVSS VL: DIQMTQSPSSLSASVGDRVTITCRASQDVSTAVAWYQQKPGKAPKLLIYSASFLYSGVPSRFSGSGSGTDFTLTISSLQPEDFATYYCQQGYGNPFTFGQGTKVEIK
[A] 0.00045 s⁻¹

[Q] Need koff, item G6.31 HC-A40E (Fab, name in Kabat numbering, V domains shown, Fab) VH: EVQLVESGGGLVQPGGSLRLSCAASGFTISDYWIHWVRQEPGKGLEWVAGITPAGGYTYYADSVKGRFTISADTSKNTAYLQMNSLRAEDTAVYYCARFVFFLPYAMDYWGQGTLVTVSS VL: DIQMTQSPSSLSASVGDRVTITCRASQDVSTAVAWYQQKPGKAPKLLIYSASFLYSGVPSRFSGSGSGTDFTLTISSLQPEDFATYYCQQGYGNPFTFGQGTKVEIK
[A] 0.000517 s⁻¹

[Q] Need koff, item G6.31 LC-Y92E (Fab, V domains shown, Fab) VH: EVQLVESGGGLVQPGGSLRLSCAASGFTISDYWIHWVRQAPGKGLEWVAGITPAGGYTYYADSVKGRFTISADTSKNTAYLQMNSLRAEDTAVYYCARFVFFLPYAMDYWGQGTLVTVSS VL: DIQMTQSPSSLSASVGDRVTITCRASQDVSTAVAWYQQKPGKAPKLLIYSASFLYSGVPSRFSGSGSGTDFTLTISSLQPEDFATYYCQQGEGNPFTFGQGTKVEIK
[A] 0.00103 s⁻¹

[Q] Need koff, item G6.31 LC-T72R (Fab, V domains shown, Fab) VH: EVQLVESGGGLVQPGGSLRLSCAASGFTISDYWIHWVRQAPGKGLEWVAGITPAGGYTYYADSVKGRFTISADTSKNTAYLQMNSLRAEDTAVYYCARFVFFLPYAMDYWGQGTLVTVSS VL: DIQMTQSPSSLSASVGDRVTITCRASQDVSTAVAWYQQKPGKAPKLLIYSASFLYSGVPSRFSGSGSGTDFRLTISSLQPEDFATYYCQQGYGNPFTFGQGTKVEIK
[A] 0.000446 s⁻¹

[Q] Need koff, item G6.31 HC-N76E (Fab, name in Kabat numbering, V domains shown, Fab) VH: EVQLVESGGGLVQPGGSLRLSCAASGFTISDYWIHWVRQAPGKGLEWVAGITPAGGYTYYADSVKGRFTISADTSKETAYLQMNSLRAEDTAVYYCARFVFFLPYAMDYWGQGTLVTVSS VL: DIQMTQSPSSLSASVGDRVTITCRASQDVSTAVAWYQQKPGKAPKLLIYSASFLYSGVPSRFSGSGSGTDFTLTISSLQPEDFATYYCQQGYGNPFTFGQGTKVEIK
[A] 0.000467 s⁻¹

[Q] Need koff, item G6.31 LC-S50R (Fab, V domains shown, Fab) VH: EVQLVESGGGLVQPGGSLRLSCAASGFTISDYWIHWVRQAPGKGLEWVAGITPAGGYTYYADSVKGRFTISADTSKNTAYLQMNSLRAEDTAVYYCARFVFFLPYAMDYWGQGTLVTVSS VL: DIQMTQSPSSLSASVGDRVTITCRASQDVSTAVAWYQQKPGKAPKLLIYRASFLYSGVPSRFSGSGSGTDFTLTISSLQPEDFATYYCQQGYGNPFTFGQGTKVEIK
[A] 0.000464 s⁻¹

[Q] Need koff, item G6.31 HC-K43E (Fab, name in Kabat numbering, V domains shown, Fab) VH: EVQLVESGGGLVQPGGSLRLSCAASGFTISDYWIHWVRQAPGEGLEWVAGITPAGGYTYYADSVKGRFTISADTSKNTAYLQMNSLRAEDTAVYYCARFVFFLPYAMDYWGQGTLVTVSS VL: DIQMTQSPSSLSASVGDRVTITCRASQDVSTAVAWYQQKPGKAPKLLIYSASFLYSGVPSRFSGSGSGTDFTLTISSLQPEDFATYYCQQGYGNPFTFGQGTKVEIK
[A] 0.000482 s⁻¹
